- test-method-notes: Test 11 acute toxicity test (oral), rat
- Design: species or system rat (F344)
- experimental-context: in vivo, male
measurement-kind: LD50

>>> experimental_result("CC(C)=CC(=O)OCC1=CC2C(=O)OC3CC(CC=C(C)CC(C)C=CC=C4COC(C1O)C42O)OC1(CCC(C)C(C)O1)C3 (stereo not shown)")
"> 5000 mg/kg"
